System: swine ileal or cecal inoculum (filtrate of cannula material)
experiment.description: In vitro swine procedure (incubation of inoculum from cannulated swine, in vitro fistula procedure)
Parameters: species or system swine (Yorksire barrow)
condition.summary: 166.67 ppm; 5 hours at 37°; blank control = 100%
This section presents compounds with their documented VFA (total of volatile fatty acids) values.

Please review the entries below; each comes with its answer.
{"compound": "CSC(=S)NN=C(C)c1ccccn1 [drawing 7]", "measured.target": "swine ileal or cecal inoculum (filtrate of cannula material)", "experimental.readout": "VFA (total of volatile fatty acids)", "measured.result": "89 % of Control Values"}
{"compound": "CC(=NNC(N)=S)c1ccccn1 [drawing 5]", "measured.target": "swine ileal or cecal inoculum (filtrate of cannula material)", "experimental.readout": "VFA (total of volatile fatty acids)", "measured.result": "43 % of Control Values"}
{"compound": "COC(=O)NN=C(C)c1ccccn1 [drawing 3]", "measured.target": "swine ileal or cecal inoculum (filtrate of cannula material)", "experimental.readout": "VFA (total of volatile fatty acids)", "measured.result": "88 % of Control Values"}
{"compound": "COC(=O)NN=Cc1ccccn1 [drawing 4]", "measured.target": "swine ileal or cecal inoculum (filtrate of cannula material)", "experimental.readout": "VFA (total of volatile fatty acids)", "measured.result": "109 % of Control Values"}

Here's the next entry for you.
Given the compound CC(=NNC(=S)N1CCCCC1)c1ccccn1 [drawing 2] and test system swine ileal or cecal inoculum (filtrate of cannula material), the measured VFA (total of volatile fatty acids) is 63 % of Control Values

* * *

experiment.description: Chick growth study
Format: in vivo, broiler chicks
condition.summary: Gallus gallus, feed or water, 408 h, 50 ppm in feed, days 3-17; read-out: Feed Gain (3-17 day)
This section presents molecules with their documented response vs control in vivo at 50 ppm values.
Provide only the numeric value, understood in %.

Please review the entries below; each comes with its answer.
{"molecule": "CC(=NNC(=S)N1CCCCCC1)c1ccccn1 [Compound 10]", "experimental.readout": "response vs control in vivo at 50 ppm", "measured.result": 80.6}
{"molecule": "CC(=NNC(N)=S)c1ccccn1 [drawing 14]", "experimental.readout": "response vs control in vivo at 50 ppm", "measured.result": 91.2}
{"molecule": "COC(=O)NN=Cc1ccccn1 [drawing 12]", "experimental.readout": "response vs control in vivo at 50 ppm", "measured.result": 86.4}

// sample COC(=O)NN=Cc1cccnc1 , its response vs control in vivo at 50 ppm was 102

// sample CC(=NNC(=S)N1CCCCC1)c1ccccn1 [drawing 9] , its response vs control in vivo at 50 ppm was 80.6

// sample CC(=NNC(=S)N1CC2CCC(CC2)C1)c1ccccn1 [drawing 8] , its response vs control in vivo at 50 ppm was 80.6

// sample COC(=O)NN=C(C)c1ccccn1 [drawing 13] , its response vs control in vivo at 50 ppm was 94
